Target: HIV-1 pseudovirus AC10.0.29 (HIV-1)
Experiment: cell-based or functional assay
Observation type: IC50 (neutralization in TZM.bl cells) (µg/mL)
All answers are understood in µg/mL, so give the number only.

Guide cases for IC50 (neutralization in TZM.bl cells), answers given:
1. MS-89 (antibody, V domains shown) VH: QVQLVQSGPEVRKPGTSVKVSCKAPGYTLKTYDLHWVRSVPGQGLQWMGWISHEGDKKVIVERFKAKVTITWDRSTNTAYLQLSGLTSGDTAVYYCAKGSKHRLRDYALYDDDGALNWAVDVDYLSNLEFWGQGTAVTVSS VL: DFVLTQSPLSLSVTPGESASISCKSSHSLIHGDRNNYLAWYVQKPGRSPQLLIYLASSRASGVPDRFSGSGSDKDFTLKISRVETEDVGTYYCMQGRESPWTFGQGTKVDIKR : 0.067
2. MS-75 (antibody, V domains shown) VH: QVQLVQSGPEVRKPGTSVKVSCKASGNTLKTYDLHWVRSVPGQGLQWMGWISHEGDKKVIVERFKAKVTIDWDRSTNTAYLQLSGLTSGDTAVYYCAKGSKHRLRDYALYDDDGALNWAVDVDYLSNLEFWGQGTAVTVSS VL: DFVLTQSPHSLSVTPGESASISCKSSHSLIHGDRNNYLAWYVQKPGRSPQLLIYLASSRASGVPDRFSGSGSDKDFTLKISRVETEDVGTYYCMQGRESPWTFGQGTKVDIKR : 0.055
3. MS-72 (antibody, V domains shown) VH: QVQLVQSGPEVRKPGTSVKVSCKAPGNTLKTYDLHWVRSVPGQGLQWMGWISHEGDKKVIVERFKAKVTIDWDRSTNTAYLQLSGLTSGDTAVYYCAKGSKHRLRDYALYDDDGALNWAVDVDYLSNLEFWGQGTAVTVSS VL: DFVLTQSPHSLSVTPGESASISCKSSHSLIHGDRNNYLAWYVQKPGRSPQLLIYLASSRASGVPDRFSGSGSDTDFTLKISRVETEDVGTYYCMQGRESPWTFGQGTKVDIKR : 0.051
4. MS-92 (antibody, V domains shown) VH: QVQLVQSGPEVRKPGTSVKVSCKAPGNTLKTYDLHWVRSVPGQGLEWMGWISHEGDKKVIVERFKAKVTIDRDRSTNTAYLQLSGLRSGDTAVYYCAKGSKHRLRDYALYDDDGALNWAVDVDYLSNLEFWGQGTAVTVSS VL: DIVLTQSPHSLSVTPGESASISCKSSHSLIHGDRNNYLAWYVQKPGRSPQLLIYLASSRASGVPDRFSGSGSDKDFTLKISRVETEDVGTYYCMQGRESPWTFGQGTKVDIKR : 0.051

# evaluate next
// IC50 (neutralization in TZM.bl cells) lookup, binder = MS-80 (antibody, V domains shown) VH: QVQLVQSGPEVRKPGTSVKVSCKAPGNTLKTYDLHWVRSVPGQGLQWMGWISHEGDKKVIVERFKAKVTIDRDRSTNTAYLQLSGLTSGDTAVYYCAKGSKHRLRDYALYDDDGALNWAVDVDYLSNLEFWGQGTAVTVSS VL: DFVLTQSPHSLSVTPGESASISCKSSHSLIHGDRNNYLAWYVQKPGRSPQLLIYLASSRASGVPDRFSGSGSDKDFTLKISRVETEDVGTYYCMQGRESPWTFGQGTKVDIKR , result: 0.054
